# System: HeLa-APL
# method_notes: SRB colorimetric assay of cell growth and viability, HeLa-APL
# Assay type: cell-based, human
# experimental_context: 48 hours exposure; read-out: LC50 HELA-APL
Where a SMILES comes first, the peptide text is derived from it. Bridges are numbered along the chain shown (N, C = ends). [ ]: non-standard residue; d: D form. The star is where a group is joined. d(aIle) = CC[C@H](C)[C@@H](N)C(=O)O; d(aThr) = C[C@@H](O)[C@@H](N)C(=O)O; Hexanoyl(5-Me) = CC(C)CCCC(=O)*; Orn = NCCC[C@H](N)C(=O)O; Dhb = C/C=C(\N)C(=O)O
For each of the compounds below, state its CC50.
Answers are plain numbers, in µM.

Take a look at these entries with their results.
[
  {
    "compound": "C/C=C1\\NC(=O)[C@H](Cc2ccccc2)NC(=O)[C@@H](C(C)C)NC(=O)[C@@H]([C@@H](C)CC)NC(=O)[C@H](NC(=O)[C@H](NC(=O)[C@H](CCCN)NC(=O)[C@H]2CCCN2C(=O)[C@H](NC(=O)[C@@H](NC(=O)[C@@H](NC(=O)[C@H](NC(=O)c2ccc(C(F)(F)F)cc2)C(C)C)[C@@H](C)O)C(C)C)C(C)C)[C@@H](C)CC)[C@@H](C)OC(=O)[C@H](C(C)C)NC1=O [Compound 21, [p-CF3Bza^14]-KF]",
    "CC50 [µM]": 3.67
  },
  {
    "compound": "C/C=C1\\NC(=O)[C@H](Cc2ccccc2)NC(=O)[C@@H](C(C)C)NC(=O)[C@@H]([C@@H](C)CC)NC(=O)[C@H](NC(=O)[C@H](NC(=O)[C@H](CCCN)NC(=O)[C@H]2CCCN2C(=O)[C@H](NC(=O)[C@@H](NC(=O)[C@@H](NC(=O)[C@H](NC(=O)CCCCCCCCCC)C(C)C)[C@@H](C)O)C(C)C)C(C)C)[C@@H](C)CC)[C@@H](C)OC(=O)[C@H](C(C)C)NC1=O [Compound 15, [Und^14]-KF]",
    "CC50 [µM]": 3.55
  }
]

Now look at this one.
Given C/C=C1\NC(=O)[C@H](Cc2ccccc2)NC(=O)[C@@H](C(C)C)NC(=O)[C@@H]([C@@H](C)CC)NC(=O)[C@H](NC(=O)[C@H](NC(=O)[C@H](CCCN)NC(=O)[C@H]2CCCN2C(=O)[C@H](NC(=O)[C@H](CC(C)C)NC(=O)[C@@H](NC(=O)[C@H](NC(=O)CCCC(C)C)C(C)C)[C@@H](C)O)C(C)C)[C@@H](C)CC)[C@@H](C)OC(=O)[C@H](C(C)C)NC1=O [Compound 45, [Leu^11]-KF] ({Hexanoyl(5-Me)}-[dV]TL[dV][dP][Orn][d(aIle)][d(aThr)][d(aIle)][dV]F[Dhb]V; ester 8-C) , state its recorded CC50. 4.13

====

# Tested on: SK-MEL-28
# method_notes: SRB colorimetric assay of cell growth and viability, SK-MEL-28
# Format: cell-based, human
# experimental_context: MEL-28; 48 hours exposure
Where a SMILES comes first, the peptide text is derived from it. Bridges are numbered along the chain shown (N, C = ends). [ ]: non-standard residue; d: D form. The star is where a group is joined. d(aIle) = CC[C@H](C)[C@@H](N)C(=O)O; d(aThr) = C[C@@H](O)[C@@H](N)C(=O)O; Hexanoyl(5-Me) = CC(C)CCCC(=O)*; Phg = N[C@H](C(=O)O)c1ccccc1; Orn = NCCC[C@H](N)C(=O)O; Dhb = C/C=C(\N)C(=O)O
What GI50 was measured for each of the following?
One number for each entry, in nM.

[
  {
    "compound": "C/C=C1\\NC(=O)[C@H](Cc2ccccc2)NC(=O)[C@@H](C(C)C)NC(=O)[C@@H]([C@@H](C)CC)NC(=O)[C@H](NC(=O)[C@H](NC(=O)[C@H](CCCN)NC(=O)[C@H]2CCCN2C(=O)[C@H](NC(=O)[C@@H](NC(=O)[C@H](CCC(N)=O)NC(=O)[C@H](NC(=O)CCCC(C)C)C(C)C)C(C)C)C(C)C)[C@@H](C)CC)[C@@H](C)OC(=O)[C@H](C(C)C)NC1=O [Compound 119, [Gln^12]-KF] ({Hexanoyl(5-Me)}-[dV]QV[dV][dP][Orn][d(aIle)][d(aThr)][d(aIle)][dV]F[Dhb]V; ester 8-C)",
    "value_measured": 1990
  }
]

Now for another entry.
Name the recorded GI50 for C/C=C1\NC(=O)[C@H](c2ccccc2)NC(=O)[C@@H](C(C)C)NC(=O)[C@@H]([C@@H](C)CC)NC(=O)[C@H](NC(=O)[C@H](NC(=O)[C@H](CCCN)NC(=O)[C@H]2CCCN2C(=O)[C@H](NC(=O)[C@@H](NC(=O)[C@@H](NC(=O)[C@H](NC(=O)CCCC(C)C)C(C)C)[C@@H](C)O)C(C)C)C(C)C)[C@@H](C)CC)[C@@H](C)OC(=O)[C@H](C(C)C)NC1=O [Compound 87, [Phg^3]-KF] ({Hexanoyl(5-Me)}-[dV]TV[dV][dP][Orn][d(aIle)][d(aThr)][d(aIle)][dV][Phg][Dhb]V; ester 8-C) . 1900

====

Task for the reader: assign each of the following compounds its reported GI50.
# System: LoVo-Dox
# method_notes: SRB colorimetric assay of cell growth and viability, LoVo-Dox
# Assay type: cell-based, human
# experimental_context: 48 hours exposure
Where a SMILES comes first, the peptide text is derived from it. Bridges are numbered along the chain shown (N, C = ends). [ ]: non-standard residue; d: D form. The star is where a group is joined. d(aIle) = CC[C@H](C)[C@@H](N)C(=O)O; d(aThr) = C[C@@H](O)[C@@H](N)C(=O)O; Hexanoyl(5-Me) = CC(C)CCCC(=O)*; dCha = N[C@H](CC1CCCCC1)C(=O)O; Orn = NCCC[C@H](N)C(=O)O; Dhb = C/C=C(\N)C(=O)O

Sample records with GI50:
[
  {
    "compound": "C/C=C1\\NC(=O)[C@H](Cc2ccccc2)NC(=O)[C@@H](C(C)C)NC(=O)[C@@H]([C@@H](C)CC)NC(=O)[C@H](NC(=O)[C@H](NC(=O)[C@H](CCCN)NC(=O)[C@H]2CCCN2C(=O)[C@H](NC(=O)[C@@H](NC(=O)[C@@H](NC(=O)[C@H](NC(=O)CCCC(C)C)[C@H](C)O)[C@@H](C)O)C(C)C)C(C)C)[C@@H](C)CC)[C@@H](C)OC(=O)[C@H](C(C)C)NC1=O [Compound 41, [D-Thr^13]-KF]",
    "GI50": "126 nM"
  },
  {
    "compound": "C/C=C1\\NC(=O)[C@H](Cc2ccccc2)NC(=O)[C@@H](C(C)C)NC(=O)[C@@H](C(C)C)NC(=O)[C@H](NC(=O)[C@H](NC(=O)[C@H](CCCN)NC(=O)[C@H]2CCCN2C(=O)[C@H](NC(=O)[C@@H](NC(=O)[C@@H](NC(=O)[C@H](NC(=O)CCCC(C)C)C(C)C)[C@@H](C)O)C(C)C)C(C)C)C(C)C)[C@@H](C)OC(=O)[C@H](C(C)C)NC1=O [Compound 12, [D-Val^5, D-Val^7]-KF] ({Hexanoyl(5-Me)}-[dV]TV[dV][dP][Orn][dV][d(aThr)][dV][dV]F[Dhb]V; ester 8-C)",
    "GI50": "952 nM"
  },
  {
    "compound": "C/C=C1\\NC(=O)[C@H](Cc2ccccc2)NC(=O)[C@@H](C(C)C)NC(=O)[C@@H]([C@@H](C)CC)NC(=O)[C@H](NC(=O)[C@H](NC(=O)[C@H](CCCN)NC(=O)[C@H]2CCCN2C(=O)[C@H](NC(=O)[C@@H](NC(=O)[C@@H](NC(=O)[C@H](NC(=O)CCCC(C)C)C(C)C)[C@@H](C)O)C(C)C)C(C)C)[C@@H](C)CC)[C@H](C)OC(=O)[C@H](C(C)C)NC1=O [Compound 2, [D-Thr^6]-KF]",
    "GI50": "3060 nM"
  }
]

Answer for every listed entry: what is its GI50? The entries follow.
1. C/C=C1\NC(=O)[C@H](Cc2ccccc2)NC(=O)[C@@H](C(C)C)NC(=O)[C@@H]([C@@H](C)CC)NC(=O)[C@H](NC(=O)[C@H](NC(=O)[C@H](CCCN)NC(=O)[C@H]2CCCN2C(=O)[C@H](NC(=O)[C@@H](NC(=O)[C@@H](NC(=O)[C@H](NC(=O)C(F)(F)C(F)(F)C(F)(F)C(F)(F)C(F)(F)C(F)(F)F)C(C)C)[C@@H](C)O)C(C)C)C(C)C)[C@@H](C)CC)[C@@H](C)OC(=O)[C@H](C(C)C)NC1=O [Compound 26, [Pfh^14]-KF]
2. C/C=C1\NC(=O)[C@H](Cc2ccccc2)NC(=O)[C@@H](C(C)C)NC(=O)[C@@H]([C@@H](C)CC)NC(=O)[C@H](NC(=O)[C@H](NC(=O)[C@H](CCCN)NC(=O)[C@H]2CCCN2C(=O)[C@H](NC(=O)[C@@H](NC(=O)[C@H](CCC(=O)O)NC(=O)CCCC(C)C)C(C)C)C(C)C)[C@@H](C)CC)[C@@H](C)OC(=O)[C@H](C(C)C)NC1=O [Compound 56, [Glu^12, noD-Val^13]-KF] ({Hexanoyl(5-Me)}-EV[dV][dP][Orn][d(aIle)][d(aThr)][d(aIle)][dV]F[Dhb]V; ester 7-C)
3. C/C=C1\NC(=O)[C@H](Cc2ccccc2)NC(=O)[C@@H](C(C)C)NC(=O)[C@@H]([C@@H](C)CC)NC(=O)[C@H](NC(=O)[C@H](NC(=O)[C@H](CCC(=O)O)NC(=O)[C@H]2CCCN2C(=O)[C@H](NC(=O)[C@@H](NC(=O)[C@@H](NC(=O)[C@H](NC(=O)CCCC(C)C)C(C)C)[C@@H](C)O)C(C)C)C(C)C)[C@@H](C)CC)[C@@H](C)OC(=O)[C@H](C(C)C)NC1=O [Compound 4, [Glu^8]-KF] ({Hexanoyl(5-Me)}-[dV]TV[dV][dP]E[d(aIle)][d(aThr)][d(aIle)][dV]F[Dhb]V; ester 8-C)
4. C/C=C1\NC(=O)[C@H](Cc2ccccc2)NC(=O)[C@@H](C(C)C)NC(=O)[C@@H]([C@@H](C)CC)NC(=O)[C@H](NC(=O)[C@H](NC(=O)[C@H](CCCN)NC(=O)[C@H]2CCCN2C(=O)[C@H](NC(=O)[C@@H](NC(=O)[C@@H](NC(=O)[C@@H](CC(C)C)NC(=O)CCCC(C)C)[C@@H](C)O)C(C)C)C(C)C)[C@@H](C)CC)[C@@H](C)OC(=O)[C@H](C(C)C)NC1=O [Compound 35, [D-Leu^13]-KF]
5. C/C=C1\NC(=O)[C@H](Cc2ccccc2)NC(=O)[C@@H](C(C)C)NC(=O)[C@@H]([C@@H](C)CC)NC(=O)[C@H](NC(=O)[C@H](NC(=O)[C@H](CCCN)NC(=O)[C@H]2CCCN2C(=O)[C@H](NC(=O)[C@@H](NC(=O)[C@H](NC(=O)[C@H](NC(=O)CCCC(C)C)C(C)C)[C@H](C)O)C(C)C)C(C)C)[C@@H](C)CC)[C@@H](C)OC(=O)[C@H](C(C)C)NC1=O [Compound 7, [D-Thr^12]-KF]
6. C/C=C1\NC(=O)[C@H](Cc2ccccc2)NC(=O)[C@@H](CC2CCCCC2)NC(=O)[C@@H](CC2CCCCC2)NC(=O)[C@H](NC(=O)[C@@H](CC2CCCCC2)NC(=O)[C@H](CCCN)NC(=O)[C@H]2CCCN2C(=O)[C@H](NC(=O)[C@@H](NC(=O)[C@@H](NC(=O)[C@H](NC(=O)CCCC(C)C)C(C)C)[C@@H](C)O)C(C)C)C(C)C)[C@@H](C)OC(=O)[C@H](C(C)C)NC1=O [Compound 11, [D-Cha^4, D-Cha^5, D-Cha^7]-KF] ({Hexanoyl(5-Me)}-[dV]TV[dV][dP][Orn][dCha][d(aThr)][dCha][dCha]F[Dhb]V; ester 8-C)

["131 nM", "≥ 7110 nM", "757 nM", "158 nM", "5140 nM", "81.9 nM"]

Every entry's value here was drawn from patent US20070117743A1.
